test system: NCI-H460 lung; test: NCI-60 one-dose screen, 48 h (100 = growth as untreated, 0 = no growth, -100 = all killed); conditions: 10 µM unless noted
Compounds without any hit were thinned out: in the full panel of roughly 83,000, 20% have a hit.
Would you kindly list growth for each of these compounds?
Please respond with the number in % and leave the unit unwritten.

Request: Look up growth for this compound: Nc1ccc2c(c1)c(N)nn2C(=O)Nc1ccc(Cc2ccccc2)cc1
Result: 44.5

Request: Look up growth for this compound: NC(=S)Nc1cccc(O)c1
Result: 104

Request: Look up growth for this compound: CCCCCCCCCCCC(c1ccccc1)[N+](C)(C)C (centres undefined)
Result: 16.4

Request: Look up growth for this compound: CCc1ccccc1-n1c(-c2ccc(Cl)cc2)cc(-c2ccc(Cl)cc2)c(C#N)c1=O
Result: 93.9

Request: Look up growth for this compound: CC1(C)OC2C(CO[Si](C)(C)C(C)(C)C)OC(n3c(I)c(C#C[Si](C)(C)C)c(=O)[nH]c3=O)C2O1 (centres undefined)
Result: 106

Request: Look up growth for this compound: O=C(c1ccccc1)c1c(/C=C/c2ccccc2)nc2ccccc2c1/C=C/c1ccc(Br)cc1
Result: 106

Request: Look up growth for this compound: CN(C)CC1C(=O)O[C@H]2[C@H]1CC/C(COC(=O)c1cc3ccccc3[nH]1)=C\CC[C@@]1(C)O[C@@H]21 (some centres undefined)
Result: 17.6

Request: Look up growth for this compound: COC(=O)[C@H](CSC)N(C)C(=O)[C@@H]1CSSC[C@@H](NC(=O)c2nc3ccccc3cc2O)C(=O)NCC(=O)N1C
Result: 59.1

Request: Look up growth for this compound: COc1cc(/C=C2\C(=O)ON=C2C)cc(OC)c1OC
Result: 110

----------
system: UO-31 renal; assay: NCI-60 one-dose screen, 48 h (100 = growth as untreated, 0 = no growth, -100 = all killed); conditions: 10 µM unless noted
Compounds without any hit were thinned out: in the full panel of roughly 83,000, 20% have a hit.
Note to self: class labels come from recorded growth, ranges listed here: bin 0 (below 30%), bin 1 (30% to below 80%), bin 2 (80% or more)

Request: Entry Cc1cc(/C=C\c2ccc3ccccc3[n+]2C)c(O)c2ncccc12 belongs to which category?
Result: bin 0

Request: Entry CCOC(=O)C/C(C)=N\NC(=O)c1ccncc1 belongs to which category?
Result: bin 2

Request: Entry O=C(c1ccccc1)N1N=C(c2ccccc2)CC1c1nnc2n(Cc3ccccc3)c(=O)c3c4c(sc3n12)CCCC4 (centres undefined) belongs to which category?
Result: bin 2

Request: Entry CCN(CC)c1nc(SCC(=O)Nc2nc3ccc(C)cc3s2)nc(-c2ccccc2)c1C#N belongs to which category?
Result: bin 1

Request: Entry Cc1ccc(S(=O)(=O)N/N=C\c2cc(Cl)ccc2O)cc1 belongs to which category?
Result: bin 2

Request: Entry COC(=O)[C@]12CC[C@@H](C)[C@H](C)[C@@H]1C1=CC[C@@H]3[C@@]4(C)C(C=O)=C[C@@](C)(COC(C)=O)[C@@H]4C(=O)C[C@@]3(C)[C@]1(C)CC2 belongs to which category?
Result: bin 1

Request: Entry N#Cc1c(-c2cccc(Cl)c2)cc(-c2cccc(Cl)c2)[nH]c1=O belongs to which category?
Result: bin 1

Request: Entry COc1cc(C2CC(=O)Nc3c2c(C)nn3-c2nc3ccccc3[nH]2)c(OC)c(OC)c1OC (centres undefined) belongs to which category?
Result: bin 1

Request: Entry COc1ccc(-c2csc(C3=C(O)CN(C(C)C)C3=N)n2)cc1OC belongs to which category?
Result: bin 0

Request: Entry C[C@H]1[C@H]2[C@H]3CC[C@@H]4[C@@]5(C)C/C(=C/c6cccnc6)C(=O)C(C)(C)[C@@H]5CC[C@@]4(C)[C@]3(C)CC[C@]23CO[C@]1(C)[C@@H](C(=O)/C=C\c1cccnc1)C3 belongs to which category?
Result: bin 0

Request: Entry COC(=O)c1ccc(CSc2nnc(-c3c(C)nc4ccc(C)cn34)o2)cc1 belongs to which category?
Result: bin 2

Request: Entry Cn1c(-c2c(N)n(Cc3ccc(C(F)(F)F)cc3)c3nc(C#N)c(C#N)nc23)nc2ccccc21 belongs to which category?
Result: bin 0

Request: Entry C[n+]1cc2c3c(ccc2c2ccc4cc5c(cc4c21)OCO5)OCO3 belongs to which category?
Result: bin 0

Request: Entry O=C(Nc1ccccc1Cl)Oc1ccc(-c2ccccc2)cc1 belongs to which category?
Result: bin 2

Request: Entry Cn1c(=O)c2c(nc(Cl)n2CCl)n(C)c1=O belongs to which category?
Result: bin 2

Request: Entry Cc1ccc(/C=C/c2c(C(=O)/C=C/c3ccc(Cl)cc3)c(C)nc3ccccc23)cc1 belongs to which category?
Result: bin 0

Request: Entry N=c1sc(Cc2ccc(Cl)cc2)cn1CC(=O)c1ccc(F)cc1 belongs to which category?
Result: bin 1

Request: Entry O=C(/C=C/c1c(Cl)nc2sccn12)c1ccc(F)c(F)c1 belongs to which category?
Result: bin 1
